- assayed target: T1, human ROR2 expressed on the cell surface (human, UniProt Q01974 34-943)
- T1 construct: Endogenous ROR2 of human tumour cell lines; also called cell surface ROR2; ROR2 on tumour cell lines
- T1 sequence (Q01974 34-943 limits assumed): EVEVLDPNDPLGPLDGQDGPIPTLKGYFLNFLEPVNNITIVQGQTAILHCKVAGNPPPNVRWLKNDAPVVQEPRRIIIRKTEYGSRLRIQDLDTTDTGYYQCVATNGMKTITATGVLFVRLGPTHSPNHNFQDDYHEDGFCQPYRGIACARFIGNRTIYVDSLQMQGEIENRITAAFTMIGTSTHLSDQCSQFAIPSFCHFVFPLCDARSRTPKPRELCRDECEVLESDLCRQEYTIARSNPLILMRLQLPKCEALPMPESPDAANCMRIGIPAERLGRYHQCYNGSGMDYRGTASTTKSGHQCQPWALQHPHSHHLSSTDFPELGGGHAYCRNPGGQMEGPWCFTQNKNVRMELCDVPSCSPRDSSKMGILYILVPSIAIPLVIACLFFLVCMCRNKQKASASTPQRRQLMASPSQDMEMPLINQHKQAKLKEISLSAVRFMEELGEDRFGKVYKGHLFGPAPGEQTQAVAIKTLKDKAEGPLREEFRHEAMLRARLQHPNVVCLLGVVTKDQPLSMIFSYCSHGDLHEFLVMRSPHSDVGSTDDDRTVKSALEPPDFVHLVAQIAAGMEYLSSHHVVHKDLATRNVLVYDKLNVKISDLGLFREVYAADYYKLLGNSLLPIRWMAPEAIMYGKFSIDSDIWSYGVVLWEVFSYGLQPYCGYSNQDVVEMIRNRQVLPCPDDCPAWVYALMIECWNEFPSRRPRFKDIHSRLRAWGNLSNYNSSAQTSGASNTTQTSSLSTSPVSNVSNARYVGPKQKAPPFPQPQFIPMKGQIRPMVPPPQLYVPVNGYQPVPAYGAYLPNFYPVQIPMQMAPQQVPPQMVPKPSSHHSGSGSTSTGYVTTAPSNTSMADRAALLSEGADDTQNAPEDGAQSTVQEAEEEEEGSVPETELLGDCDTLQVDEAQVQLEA
- procedure details: flow cytometry, TC71 cells (EW/PNET)
- Set-up: unit not given here
- Experimental: Human tumour cell lines were authenticated using short tandem repeat (STR) analysis. They were cultured in RPMI1640 (Cellgro) supplemented with 10% fetal bovine serum (FBS, Life Technologies) at 37° C. in a 5% CO₂ humidified incubator. They were harvested, washed in PBS and reacted with ROR2-IgG at 1 ug/10⁶ tumour cells on ice for an hour. #901-IgG was used as a negative control at the same dose. […] Staining was analyzed on a FACSCalibur (BD Biosciences). […]
A collection of binders and their measured binding intensity
Give the figure only, with no unit attached.

| binder | result |
| --- | --- |
| ROR2-27 full length human IgG1 antibody (antibody, V domains shown, also called clone #27; clone #027 IgG1) VH: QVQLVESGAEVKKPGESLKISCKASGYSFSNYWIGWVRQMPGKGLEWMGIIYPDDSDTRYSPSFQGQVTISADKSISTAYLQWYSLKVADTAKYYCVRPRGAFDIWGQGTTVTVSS VL: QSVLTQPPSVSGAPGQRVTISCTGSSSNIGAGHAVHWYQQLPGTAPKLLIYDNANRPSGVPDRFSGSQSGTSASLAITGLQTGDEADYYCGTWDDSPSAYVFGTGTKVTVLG | 21 |
| ROR2-241 full length human IgG1 antibody (antibody, V domains shown) VH: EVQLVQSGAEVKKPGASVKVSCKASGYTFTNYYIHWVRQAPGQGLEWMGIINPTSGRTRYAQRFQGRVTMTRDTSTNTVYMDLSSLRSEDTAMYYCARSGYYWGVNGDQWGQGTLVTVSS VL: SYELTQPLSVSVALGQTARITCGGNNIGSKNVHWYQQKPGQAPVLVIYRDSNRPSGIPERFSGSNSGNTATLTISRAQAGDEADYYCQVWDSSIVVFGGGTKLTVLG | 12 |

Now consider a different binder.
Lookup: Tell us which binding intensity value is on record for ROR2-90 full length human IgG1 antibody (antibody, V domains shown, also called clone #90; antibody #90) VH: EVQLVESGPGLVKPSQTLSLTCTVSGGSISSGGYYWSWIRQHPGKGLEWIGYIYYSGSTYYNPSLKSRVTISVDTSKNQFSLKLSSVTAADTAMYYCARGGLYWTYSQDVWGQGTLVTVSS VL: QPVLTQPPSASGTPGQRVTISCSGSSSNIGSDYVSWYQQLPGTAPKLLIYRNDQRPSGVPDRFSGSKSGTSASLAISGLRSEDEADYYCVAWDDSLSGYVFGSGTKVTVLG
Found: 68

Data credit: patent US20180127503A1
